Molecular target: recombinant HA derived from influenza A subtype H9 (A/chicken/HK/G9/97 (H9N2)) (influenza A virus A/chicken/Hong Kong/G9/97 (H9N2))
Assay: ELISA on coated recombinant H9 HA
// reported EC50 per item
Unit µg/mL implied. Number only.

{"columns": ["binder", "property", "reported_value"],
 "data": [
  ["FBC-39 (antibody, V domains shown) VH: EVQLVVSGGGLVKPGGSLRLSCAASGLSFLNAWMSWVRQAPGKGLEWVGRIKSNTDGGTTDYAAPVKGRFSISRDDSKNMLFLHMSSLRTEDTAVYYCATDGPYSDDFRSGYAARYRYFGMDVWGQGTTVTVSS VL: DIQMTQSPSSVSASVGDRVTITCRASQDISTWLAWYQQKPGKAPKLLIYAASSLQSGVPSRFSGSGSGTDFTLTISSLQPEDFATYFCQQANSFPPTFGQGTKLEIK", "EC50", 6.2],
  ["FBC-39 LTL (antibody, V domains shown) VH: EVQLVESGGGLVKPGGSLRLSCAASGLTFLNAWMSWVRQAPGKGLEWVGRIKSNTDGGTTDYAAPVKGRFTISRDDSKNTLYLQMSSLKTEDTAVYYCTTDGPYSDDFRSGYAARYRYFGMDVWGQGTTVTVSS VL: DIQMTQSPSSVSASVGDRVTITCRASQDISTWLAWYQQKPGKAPKLLIYAASSLQSGVPSRFSGSGSGTDFTLTISSLQPEDFATYYCQQANSFPPTFGQGTKLEIK", "EC50", 6.3],
  ["FBC-39 FTL (antibody, V domains shown) VH: EVQLVESGGGLVKPGGSLRLSCAASGFTFLNAWMSWVRQAPGKGLEWVGRIKSNTDGGTTDYAAPVKGRFTISRDDSKNTLYLQMSSLKTEDTAVYYCTTDGPYSDDFRSGYAARYRYFGMDVWGQGTTVTVSS VL: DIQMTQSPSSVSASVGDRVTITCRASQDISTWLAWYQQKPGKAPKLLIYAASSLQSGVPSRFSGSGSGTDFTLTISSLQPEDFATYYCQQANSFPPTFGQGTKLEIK", "EC50", 46.1]
]}

For the next question, use this binder.
Memo: FBC-39 LSL (antibody, V domains shown) VH: EVQLVESGGGLVKPGGSLRLSCAASGLSFLNAWMSWVRQAPGKGLEWVGRIKSNTDGGTTDYAAPVKGRFTISRDDSKNTLYLQMSSLKTEDTAVYYCTTDGPYSDDFRSGYAARYRYFGMDVWGQGTTVTVSS VL: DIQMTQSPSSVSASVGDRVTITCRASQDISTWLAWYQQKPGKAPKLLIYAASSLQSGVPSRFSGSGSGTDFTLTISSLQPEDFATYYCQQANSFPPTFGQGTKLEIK , reported EC50: 41.7
